assay: Effect of polymer modification on drug solubility: maximum solubility in water at room temperature, compound added step-wise; assay type: physicochemical; conditions: water; unmodified base drug
READOUT_KIND: solubility (mg/mL)
# value in mg/mL; strip the unit string

In: Give a short answer stating reported solubility for O=C(O)c1ccccc1O [Salicylic Acid, salicylic acid] .
Out: 2.2

Entry source: patent US8431113B2
